Known pIC50 of a selection of molecules
Test system: 556581-035-R-J1-PDC complex spheroid growth;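 note: spheroids exposed to agents for 7 days before viability read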
Assay: Anticancer human tumor 556581-035-R-J1-PDC patient-derived ovarian carcinoma cell line growth inhibition [Asc]
Conditions: curve of first compound; second compound 0.3 µM
Description: Multicellular complex tumor spheroid response to apoptosis pathway targeting inhibitors Alrizomadlin, Pelcitoclax, and Dasminapant in combination with a variety of drugs and investigational agents in selected tumor cell lines […] Compounds. […] If the clinical Cmax for an agent had not been determined, the highest concentration tested was 10 microM. […]
pIC50: −log10 of the molar value.
parameter_measured: pIC50

{"molecule": "O=C(c1cc(Cc2n[nH]c(=O)c3ccccc23)ccc1F)N1CCN(C(=O)C2CC2)CC1 + CCN1C(C(=O)NC23CCC(C(=O)O)(CC2)CC3)C(c2cccc(Cl)c2F)C2(C(=O)Nc3cc(Cl)ccc32)C12CCCCC2", "system_name": "556581-035-R-J1-PDC complex spheroid growth", "endpoint_result": "< 5.00"}
{"molecule": "C=CC(=O)N1CCN(c2nc(=O)n(-c3c(C)ccnc3C(C)C)c3nc(-c4c(O)cccc4F)c(F)cc23)C(C)C1 (centres undefined) + CCN1C(C(=O)NC23CCC(C(=O)O)(CC2)CC3)C(c2cccc(Cl)c2F)C2(C(=O)Nc3cc(Cl)ccc32)C12CCCCC2", "system_name": "556581-035-R-J1-PDC complex spheroid growth", "endpoint_result": "< 5.00"}
{"molecule": "CNC(C)C(=O)NC1CN(S(=O)(=O)c2cccc(S(=O)(=O)N3CCC4CCC(C(=O)NC(c5ccccc5)c5ccccc5)N4C(=O)C(NC(=O)C(C)NC)C3)c2)CCC2CCC(C(=O)NC(c3ccccc3)c3ccccc3)N2C1=O (centres undefined) + CCN1C(C(=O)NC23CCC(C(=O)O)(CC2)CC3)C(c2cccc(Cl)c2F)C2(C(=O)Nc3cc(Cl)ccc32)C12CCCCC2", "system_name": "556581-035-R-J1-PDC complex spheroid growth", "endpoint_result": "< 6.00"}
{"molecule": "Cc1nc(N2CCC3(CC2)COC(C)C3N)c(CO)nc1Sc1ccnc(N)c1Cl (centres undefined) + CCN1C(C(=O)NC23CCC(C(=O)O)(CC2)CC3)C(c2cccc(Cl)c2F)C2(C(=O)Nc3cc(Cl)ccc32)C12CCCCC2", "system_name": "556581-035-R-J1-PDC complex spheroid growth", "endpoint_result": "< 5.52"}
